Where do these numbers come from? They come from patent US20230192860A1.

Listed below: Kd values for each entry.
- target_of_assay: T1, monovalent hVISTA-ECD with polyhistidine tail (SEQ ID NO: 325) (human, UniProt Q9H7M9 33-193)
- T1 construct: also called hVISTA-ECD 6-His tag; human VISTA
- assay_explanation: SPR, mAb captured on Protein A chip, hVISTA injected, PBST pH 7.4, 37 C
Express the reported value numerically, then name its unit.

binder: P1-077873 (P1-068748 D100S) (antibody, V domains shown, Reversion mutant of P1-068748 (Kabat names); captured on a Protein A chip) VH: QVQLVESGGGVVQPGRSLRLSCAASGFTFSHHAMHWVRQAPGKGLEWVAIIWYDGSNDDYADSVKGRFTISRDNSKNTLYLQMNSLRAEDTAVYYCARDSGFYSSYYFDYWGQGTLVTVSS VL: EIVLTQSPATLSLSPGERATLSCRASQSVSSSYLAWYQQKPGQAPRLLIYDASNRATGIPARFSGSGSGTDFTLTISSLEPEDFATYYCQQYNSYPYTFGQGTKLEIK
Kd: 3.6 nM

In the following, a different binder is considered.
Quick one: Kd for P1-077881 (P1-068748 D58Y D100S) (antibody, V domains shown, Reversion mutant of P1-068748 (Kabat names); captured on a Protein A chip) VH: QVQLVESGGGVVQPGRSLRLSCAASGFTFSHHAMHWVRQAPGKGLEWVAIIWYDGSNDYYADSVKGRFTISRDNSKNTLYLQMNSLRAEDTAVYYCARDSGFYSSYYFDYWGQGTLVTVSS VL: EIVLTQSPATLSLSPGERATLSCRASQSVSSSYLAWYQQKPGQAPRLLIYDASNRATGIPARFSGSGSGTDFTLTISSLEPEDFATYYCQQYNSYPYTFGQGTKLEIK ?
22 nM
